Please go through the items and note down their GI50.
# measured_target: Bcr/Abl fusion protein (Homo sapiens) (UniProt P00519+P11274)
# Sequence (P00519 whole entry, looked up, the tested form may be a part): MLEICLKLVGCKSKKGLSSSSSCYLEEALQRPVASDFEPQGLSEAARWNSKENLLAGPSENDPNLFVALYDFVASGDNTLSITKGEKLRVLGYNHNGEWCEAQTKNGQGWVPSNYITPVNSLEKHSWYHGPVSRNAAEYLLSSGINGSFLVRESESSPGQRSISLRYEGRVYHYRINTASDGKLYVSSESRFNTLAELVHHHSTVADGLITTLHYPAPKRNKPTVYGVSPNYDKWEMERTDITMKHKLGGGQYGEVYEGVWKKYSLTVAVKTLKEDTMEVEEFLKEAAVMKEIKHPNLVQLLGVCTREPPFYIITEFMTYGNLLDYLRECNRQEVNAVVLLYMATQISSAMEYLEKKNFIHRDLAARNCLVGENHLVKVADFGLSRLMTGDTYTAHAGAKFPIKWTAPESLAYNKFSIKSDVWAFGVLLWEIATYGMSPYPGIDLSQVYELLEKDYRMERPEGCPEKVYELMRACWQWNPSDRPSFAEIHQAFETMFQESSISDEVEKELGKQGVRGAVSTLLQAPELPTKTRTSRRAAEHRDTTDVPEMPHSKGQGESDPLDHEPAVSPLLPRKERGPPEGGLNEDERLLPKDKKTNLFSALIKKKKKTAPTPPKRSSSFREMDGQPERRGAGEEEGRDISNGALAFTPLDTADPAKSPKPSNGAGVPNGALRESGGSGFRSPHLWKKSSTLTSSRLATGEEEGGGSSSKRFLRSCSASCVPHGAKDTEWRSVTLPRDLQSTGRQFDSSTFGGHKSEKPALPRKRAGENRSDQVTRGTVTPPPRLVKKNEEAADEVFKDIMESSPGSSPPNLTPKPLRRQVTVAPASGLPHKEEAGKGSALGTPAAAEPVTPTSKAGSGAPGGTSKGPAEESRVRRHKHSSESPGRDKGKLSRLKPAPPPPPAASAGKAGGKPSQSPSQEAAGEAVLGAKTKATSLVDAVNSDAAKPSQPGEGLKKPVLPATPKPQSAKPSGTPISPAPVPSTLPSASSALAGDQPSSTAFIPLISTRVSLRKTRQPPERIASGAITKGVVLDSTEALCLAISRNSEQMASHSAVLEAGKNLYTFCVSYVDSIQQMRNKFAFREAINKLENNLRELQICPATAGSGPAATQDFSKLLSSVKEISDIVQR
# Sequence (P11274 whole entry, looked up, the tested form may be a part): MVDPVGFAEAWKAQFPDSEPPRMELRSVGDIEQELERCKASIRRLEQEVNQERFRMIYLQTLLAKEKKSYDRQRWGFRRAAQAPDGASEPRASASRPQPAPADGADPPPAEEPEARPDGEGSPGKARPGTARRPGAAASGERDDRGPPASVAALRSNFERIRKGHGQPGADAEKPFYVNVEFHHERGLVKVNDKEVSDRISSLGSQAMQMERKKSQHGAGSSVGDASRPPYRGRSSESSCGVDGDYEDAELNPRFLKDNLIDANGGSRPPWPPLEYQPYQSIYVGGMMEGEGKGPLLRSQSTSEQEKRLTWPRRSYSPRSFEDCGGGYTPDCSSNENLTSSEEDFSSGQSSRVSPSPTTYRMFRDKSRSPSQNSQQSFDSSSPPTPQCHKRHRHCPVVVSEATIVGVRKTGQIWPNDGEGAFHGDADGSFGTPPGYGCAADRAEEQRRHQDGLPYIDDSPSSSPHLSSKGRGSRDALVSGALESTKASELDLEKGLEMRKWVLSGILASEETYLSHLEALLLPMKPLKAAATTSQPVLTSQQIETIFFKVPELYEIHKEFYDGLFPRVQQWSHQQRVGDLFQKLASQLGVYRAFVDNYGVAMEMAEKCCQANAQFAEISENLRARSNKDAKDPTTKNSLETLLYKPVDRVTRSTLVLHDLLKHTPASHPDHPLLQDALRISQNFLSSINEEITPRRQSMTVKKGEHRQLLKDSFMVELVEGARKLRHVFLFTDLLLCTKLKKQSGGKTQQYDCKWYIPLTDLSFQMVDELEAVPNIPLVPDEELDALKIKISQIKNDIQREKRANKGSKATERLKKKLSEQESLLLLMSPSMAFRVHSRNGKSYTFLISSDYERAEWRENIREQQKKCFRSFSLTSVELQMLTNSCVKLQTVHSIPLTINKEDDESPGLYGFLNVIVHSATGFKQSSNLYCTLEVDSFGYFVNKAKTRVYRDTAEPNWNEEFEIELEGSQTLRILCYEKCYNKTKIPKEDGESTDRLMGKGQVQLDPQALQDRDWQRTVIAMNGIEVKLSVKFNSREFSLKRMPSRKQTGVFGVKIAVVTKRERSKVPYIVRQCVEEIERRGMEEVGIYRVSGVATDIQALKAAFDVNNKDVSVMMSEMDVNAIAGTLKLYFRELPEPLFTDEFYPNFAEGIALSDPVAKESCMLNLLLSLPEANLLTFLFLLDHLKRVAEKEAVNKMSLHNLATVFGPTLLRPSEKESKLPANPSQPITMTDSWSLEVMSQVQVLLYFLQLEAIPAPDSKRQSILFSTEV
# assay_setup: BaF3
# Description: Inhibition of BCR/ABL p210 (unknown origin) expressed in mouse BA/F3 cells assessed as growth inhibition after 72 hrs by CellTiter-Glo or CCK-8 assay
Output spec: scalar in nM, unitless text.

Q: What value of GI50 has been recorded for this entry: "Cc1ccc(NC(=O)c2cccc(C(F)(F)F)c2)cc1NC(=O)c1cnc(Nc2ccc(C)c([N+](=O)[O-])c2)nc1"
A: 1200

Q: What value of GI50 has been recorded for this entry: "CNc1cc(Nc2ncc3c(n2)N(C)C(=O)N(c2cc(NC(=O)c4cccc(C(F)(F)F)c4)ccc2C)C3)ccc1C"
A: 14

Q: What value of GI50 has been recorded for this entry: "Cc1ccc(NC(=O)c2cccc(C(F)(F)F)c2)cc1N1Cc2cnc(OC3CCNCC3)nc2N(C)C1=O"
A: 2700

Q: What value of GI50 has been recorded for this entry: "CNc1nc(Nc2ccc(C)c([N+](=O)[O-])c2)ncc1C(=O)Nc1cc(NC(=O)c2ccc3c(c2)OCCO3)ccc1C"
A: 4100

* * *

Please go through the items and note down their GI50.
# Test system: HEL
# test: Antiproliferative activity against human HEL cells assessed as cell viability after 72 hrs by CellTiter-Glo or CCK-8 assay
# Assay type: functional

Q: What value of GI50 has been recorded for this entry: "Cc1nc(Nc2ncc(C(=O)Nc3c(C)cccc3Cl)s2)cc(N2CCN(CCO)CC2)n1"
A: 5.3 µM

Q: What value of GI50 has been recorded for this entry: "CNc1nc(Nc2ccc(C)c(N)c2)ncc1C(=O)Nc1cc(NC(=O)c2cccc(C(F)(F)F)c2)ccc1C"
A: > 10 µM

Q: What value of GI50 has been recorded for this entry: "Cc1cn(-c2cc(NC(=O)c3ccc(C)c(Nc4nccc(-c5cccnc5)n4)c3)cc(C(F)(F)F)c2)cn1"
A: 3.9 µM

Q: What value of GI50 has been recorded for this entry: "Cc1ccc(NC(=O)c2ccc(CN3CCN(C)CC3)cc2)cc1Nc1nccc(-c2cccnc2)n1"
A: 5.3 µM

* * *

# test: Cmax in Sprague-Dawley rat at 10 mg/kg, po
# Assay type: ADME, organism-based
# Design: dose 10 mg/kg, route oral
# assay_setup: in vivo
quantity_measured: Cmax (ng/mL)
Output spec: scalar in ng/mL, unitless text.

Q: What value of Cmax has been recorded for this entry: "CNc1nc(Nc2ccc(C)c(N)c2)ncc1C(=O)Nc1cc(NC(=O)c2cccc(C(F)(F)F)c2)ccc1C"
A: 368

* * *

# test: Apparent volume of distribution in Sprague-Dawley rat at 1 mg/kg, iv
# Assay type: ADME, organism-based
# assay_setup: in vivo, read-out: Vd(app)
quantity_measured: Vd (L/kg)
Output spec: scalar in L/kg, unitless text.

Q: What value of Vd has been recorded for this entry: "CNc1nc(Nc2ccc(C)c(N)c2)ncc1C(=O)Nc1cc(NC(=O)c2cccc(C(F)(F)F)c2)ccc1C"
A: 6.03

* * *

# test: Mean residence time (0 to infinity) in Sprague-Dawley rat at 1 mg/kg, iv
# Assay type: ADME, organism-based
# assay_setup: in vivo
quantity_measured: MRT inf (h)
Output spec: scalar in h, unitless text.

Q: What value of MRT inf has been recorded for this entry: "CNc1nc(Nc2ccc(C)c(N)c2)ncc1C(=O)Nc1cc(NC(=O)c2cccc(C(F)(F)F)c2)ccc1C"
A: 3.1

* * *

# test: Mean residence time (0 to infinity) in Sprague-Dawley rat at 10 mg/kg, po
# Type: ADME, organism-based
# assay_setup: in vivo
quantity_measured: MRT inf (h)
Output spec: scalar in h, unitless text.

Q: What value of MRT inf has been recorded for this entry: "CNc1nc(Nc2ccc(C)c(N)c2)ncc1C(=O)Nc1cc(NC(=O)c2cccc(C(F)(F)F)c2)ccc1C"
A: 5.51

src = ChEMBL document CHEMBL3779840
